test: pKa determination in 75% isopropanol
Assay type: physicochemical
conditions.used: product as isolated (assay about 85-88% phosphinic acid), read-out: pKa
measurement.name: pKa
Provide a numeric answer; units are not to be included.

Inquiry: Can you share its pKa? I mean this molecule: CC(CC(C)(C)C)CP(=O)(O)C1CCCCC1 (stereo not shown)
Reply text: 6.04
